Reference for the values: ChEMBL document CHEMBL1201861

Tested on: QIMR-WIL;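 further: growth inhibition of QIMR-WIL cells, read out with a cell viability assay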
Experiment: cells
Type: functional, cell-based
Details: Homo sapiens
Description: SANGER: Inhibition of human QIMR-WIL cell growth in a cell viability assay.
# IC50 listing for each entry below
API: value field is a number in µM; no unit string.

Example cases with answers are listed next.
CC(=O)c1c(C)c2cnc(Nc3ccc(N4CCNCC4)cn3)nc2n(C2CCCC2)c1=O [PALBOCICLIB]; 1.13
NC(=O)c1ncn([C@@H]2O[C@H](COP(=O)(O)O)[C@@H](O)[C@H]2O)c1N; 486

Continue with the molecule presented below.
q: Write down IC50 measured for item Cc1n[nH]c2ccc(-c3cncc(OC[C@@H](N)Cc4c[nH]c5ccccc45)c3)cc12 [A-443654]
a: 0.256
